The reader will find reported IC50 Ratio JAK2/JAK1 values listed item by item below.
target: human JAK1 (a.a. 837-1142); experiment: In vitro JAK kinase assay (HTRF, phosphorylation of a biotinylated peptide), JAK1; assay type: biochemical; conditions: measured at 1 mM ATP; JAK2 IC50 / JAK1 IC50
Field format: numeric only.

Record lookup: for human JAK1 (a.a. 837-1142), what IC50 Ratio JAK2/JAK1 belongs to N#CCC1(n2cc(-c3ncnc4[nH]ccc34)cn2)CN(C2CCN(C(=O)Nc3cc(F)ccc3F)CC2)C1 [Example 174] ?
7.1

Under human JAK1 (a.a. 837-1142): IC50 Ratio JAK2/JAK1 value of N#CCC1(n2cc(-c3c(F)cnc4[nH]ccc34)cn2)CN(C2CCN(C(=O)c3ccnc(C(F)(F)F)n3)CC2)C1 [Example 353] ?
5.0

Give human JAK1 (a.a. 837-1142) IC50 Ratio JAK2/JAK1 for N#CCC1(n2cc(-c3ncnc4[nH]ccc34)cn2)CN(C2CCN(Cc3cc(Cl)cc(Cl)c3)CC2)C1 [Example 210]
4.3

Give recorded IC50 Ratio JAK2/JAK1 with human JAK1 (a.a. 837-1142) for the following compound: N#CCC1(n2cc(-c3ncnc4[nH]ccc34)cn2)CN(C2CCN(C(=O)c3c(F)c(F)cc(F)c3F)CC2)C1 [Example 56]
8.8

Form entry - test system: human JAK1 (a.a. 837-1142); read-out: IC50 Ratio JAK2/JAK1; compound: COc1ccc(C(=O)N2CCC(N3CC(CC#N)(n4cc(-c5ncnc6[nH]ccc56)cn4)C3)CC2)cc1C#N [Example 55]
7.5

###

Target: human JAK1 (a.a. 837-1142)
Experiment: In vitro JAK kinase assay (HTRF, phosphorylation of a biotinylated peptide), JAK1
Type: biochemical
Conditions: measured at 1 mM ATP; JAK2 IC50 / JAK1 IC50
Experimental: Compounds herein were tested for inhibitory activity of JAK targets according to the following in vitro assay described in Park et al., Analytical Biochemistry 1999, 269, 94-104. […] The phosphorylated peptide was detected by homogenous time resolved fluorescence (HTRF). […] Binding to the Europium labeled antibody took place for 40 minutes and HTRF signal was measured on a Fusion plate reader (Perkin Elmer, Boston, Mass.).
valueType: IC50 Ratio JAK2/JAK1
Please give the numeric answer without any surrounding text.

Record excerpt, results attached:
- smilesStructure: "CN(C)Cc1cc(C(=O)N2CCC(N3CC(CC#N)(n4cc(-c5ncnc6[nH]ccc56)cn4)C3)CC2)nc(C(F)(F)F)n1"
  IC50 Ratio JAK2/JAK1: 55
- smilesStructure: "N#CCC1(n2cc(-c3ncnc4[nH]ccc34)cn2)CN(C2CCN(C(=O)c3ccc(-c4cc(F)cc(C#N)c4)c(F)c3)CC2)C1"
  IC50 Ratio JAK2/JAK1: 3.5
- smilesStructure: "N#CCC1(n2ccc(-c3ncnc4[nH]ccc34)c2)CN(C2CCN(C(=O)Nc3ccc(Cl)cc3C#N)CC2)C1"
  IC50 Ratio JAK2/JAK1: 3.4
- smilesStructure: "CCN(C)Cc1cc(C(=O)N2CCC(N3CC(CC#N)(n4cc(-c5ncnc6[nH]ccc56)cn4)C3)CC2)nc(C(F)(F)F)n1"
  IC50 Ratio JAK2/JAK1: 50
- smilesStructure: "CN(C)c1c(F)c(F)c(C(=O)N2CCC(N3CC(CC#N)(n4cc(-c5ncnc6[nH]ccc56)cn4)C3)CC2)c(F)c1F"
  IC50 Ratio JAK2/JAK1: 1.8
- smilesStructure: "COc1ncccc1NC(=O)N1CCC(N2CC(CC#N)(n3cc(-c4ccnc5[nH]ccc45)cn3)C2)CC1"
  IC50 Ratio JAK2/JAK1: 3.5
- smilesStructure: "N#CCC1(n2cc(-c3ncnc4[nH]ccc34)cn2)CN(C2CCN(Cc3cc(F)cc(F)c3)CC2)C1"
  IC50 Ratio JAK2/JAK1: 5.7
- smilesStructure: "N#CCC1(n2ccc(-c3ncnc4[nH]ccc34)c2)CN(C2CCN(C(=O)c3ccc(O)c(C(F)(F)F)c3)CC2)C1"
  IC50 Ratio JAK2/JAK1: 3.4

Under human JAK1 (a.a. 837-1142): IC50 Ratio JAK2/JAK1 value of N#CCC1(n2cc(-c3ncnc4[nH]ccc34)cn2)CN(C2CCN(C(=O)Nc3ccc(Cl)cc3F)CC2)C1 ?
6.5

Request - read-out IC50 Ratio JAK2/JAK1 | tested on human JAK1 (a.a. 837-1142) | compound Cc1csc(NC(=O)N2CCC(N3CC(CC#N)(n4cc(-c5ncnc6[nH]ccc56)cn4)C3)CC2)n1
1.4

# query: IC50 Ratio JAK2/JAK1 | item N#CCC1(n2cc(-c3ncnc4[nH]ccc34)cn2)CN(C2CCN(C(=O)c3cc4ccccc4s3)CC2)C1 | system: human JAK1 (a.a. 837-1142)
1.5

###

target: human JAK1 (a.a. 837-1142); test: In vitro JAK kinase assay (HTRF, phosphorylation of a biotinylated peptide), JAK1; format: biochemical; conditions: measured at 1 mM ATP; JAK2 IC50 / JAK1 IC50
Each entry below carries its reported IC50 Ratio JAK2/JAK1.
Answer using only a numeral; do not append any unit.

// known answers, use as guide
- compound: "N#CCC1(n2cc(-c3ncnc4[nH]ccc34)cn2)CN(C2CCN(C(=O)Nc3ccc(F)c(F)c3)CC2)C1 [Example 176]"
  IC50 Ratio JAK2/JAK1: 5.1
- compound: "N#CCC1(n2ccc(-c3ncnc4[nH]ccc34)c2)CN(C2CCN(C(=O)c3ccc(F)c(F)c3F)CC2)C1 [Example 280]"
  IC50 Ratio JAK2/JAK1: 7.5

Give the reported IC50 Ratio JAK2/JAK1 for N#CCC1(n2cc(-c3ncnc4[nH]ccc34)cn2)CN(C2CCN(C(=O)c3cc(CO)nc(C(F)(F)F)n3)CC2)C1 [Example 381] (system: human JAK1 (a.a. 837-1142)).
20

Item: CC1CC(N2CC(CC#N)(n3cc(-c4ncnc5[nH]ccc45)cn3)C2)CCN1Cc1ccc(N(C)C)c(C#N)c1F (single isomer, unassigned) [Example 242] Test system: human JAK1 (a.a. 837-1142) Read-out: IC50 Ratio JAK2/JAK1 Value: ?
8.3

Kindly state the measured IC50 Ratio JAK2/JAK1 obtained for N#CCC1(n2cc(-c3ncnc4[nH]ccc34)cn2)CN(C2CCN(C(=O)c3ccsc3)CC2)C1 [Example 15] with human JAK1 (a.a. 837-1142).
5.3

Lab request: please report IC50 Ratio JAK2/JAK1 under test system human JAK1 (a.a. 837-1142) for N#CCC1(n2cc(-c3ncnc4[nH]ccc34)cn2)CN(C2CCN(C(=O)c3ccccc3C#N)CC2)C1 [Example 10]
4.4

Write down the reported IC50 Ratio JAK2/JAK1 of N#CCC1(n2cc(-c3ncnc4[nH]ccc34)cn2)CN(C2CCN(C(=O)C3(c4ccccc4)CC3)CC2)C1 [Example 110] , test system: human JAK1 (a.a. 837-1142).
1.6

###

biological target: human JAK1 (a.a. 837-1142); assay: In vitro JAK kinase assay (HTRF, phosphorylation of a biotinylated peptide), JAK1; assay type: biochemical; conditions: measured at 1 mM ATP; JAK2 IC50 / JAK1 IC50
Reported values of IC50 Ratio JAK2/JAK1 for individual entries
Answer with a bare number; do not write a unit.

Some molecules with recorded IC50 Ratio JAK2/JAK1:
- smilesStructure: "N#CCC1(n2cc(-c3ncnc4[nH]ccc34)cn2)CN(C2CCN(Cc3c(F)ccc(Cl)c3F)CC2)C1"
  reported: 3.9
- smilesStructure: "N#CCC1(n2cc(-c3c(F)cnc4[nH]ccc34)cn2)CN(C2CCN(C(=O)c3ccc(F)cn3)CC2)C1"
  reported: 4.0

Which IC50 Ratio JAK2/JAK1 is listed for COc1ccccc1NC(=O)N1CCC(N2CC(CC#N)(n3cc(-c4ncnc5[nH]ccc45)cn3)C2)CC1 ?
4.0

Quick check: IC50 Ratio JAK2/JAK1 of N#CCC1(n2ccc(-c3ncnc4[nH]ccc34)c2)CN(C2CCN(C(=O)c3cccc(F)c3F)CC2)C1 ?
4.0

###

target: human JAK1 (a.a. 837-1142); assay: In vitro JAK kinase assay (HTRF, phosphorylation of a biotinylated peptide), JAK1; assay type: biochemical; details: measured at 1 mM ATP; JAK2 IC50 / JAK1 IC50
valueType: IC50 Ratio JAK2/JAK1
# respond with the number and nothing more

Some solved entries appear below for comparison.
- compound: "N#CCC1(n2cc(-c3ncnc4[nH]ccc34)cn2)CN(C2CC3CCC(C2)N3Cc2c(F)ccc(F)c2Cl)C1 (centres unmarked) [Example 241]"
  IC50 Ratio JAK2/JAK1: 3.8
- compound: "COc1ccc(OC)c(NC(=O)N2CCC(N3CC(CC#N)(n4cc(-c5ncnc6[nH]ccc56)cn4)C3)CC2)c1 [Example 186]"
  IC50 Ratio JAK2/JAK1: 5.5
- compound: "COc1ccccc1NC(=O)N1CCC(N2CC(CC#N)(n3ccc(-c4ncnc5[nH]ccc45)c3)C2)CC1 [Example 288]"
  IC50 Ratio JAK2/JAK1: 9.0

Which measured IC50 Ratio JAK2/JAK1 belongs to N#CCC1(n2cc(-c3ncnc4[nH]ccc34)cn2)CN(C2CCN(Cc3cc4ccccc4o3)CC2)C1 [Example 232] , tested on human JAK1 (a.a. 837-1142)?
0.7

State its IC50 Ratio JAK2/JAK1 on human JAK1 (a.a. 837-1142): N#CCC1(n2cc(-c3ncnc4[nH]ccc34)cn2)CN(C2CCN(C(=O)c3cccc(Cl)n3)CC2)C1 [Example 13]
5.3

FYI, the data here is from patent US10695337B2.
